B1: tRNA (parent)
chain: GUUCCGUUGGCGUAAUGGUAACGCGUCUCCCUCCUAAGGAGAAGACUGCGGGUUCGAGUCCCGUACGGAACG

Variants of: B1
Test: yeast fitness relative to wild type (ratio to wild type); higher = fitter; tRNA-Arg(CCU), competitive growth, 37 C, YPD
Fewer inactive variants are shown than the library holds.
The following variants are shown together with reported yeast fitness values.
Format: numeric value only, no unit, no commentary.

Illustrative cases are given below, each with its answer.
[[record]]
sequence_record = "GUUCCGUUGGCGAAAUGGUAACGCGUCUCCCUCCUAAGGAGAAGACUGCGAGUUCAAGUCCCGUACGGAACG"
assay_metric = "yeast fitness"
measured = 0.628

[[record]]
sequence_record = "GUUUCGUUGGCGUAAUGGUAACGCGUCUCCCUCCUAAGGAGAAGAGUGCGGGUUCGAGUCCCGUACGGAACG"
assay_metric = "yeast fitness"
measured = 0.981

[[record]]
sequence_record = "GUUCCGUUGGCGUAAUGGUAACGCGUCUCCUUCCUAAGGAGGAGACUGCGGGUUCGAGUCCCGUACGGAACG"
assay_metric = "yeast fitness"
measured = 0.73

[[record]]
sequence_record = "GUUCCGUUGGCGUAAUGGUAACGCGUCUCCAUCCUAAGGAGAAGACUGCGGGUUGGAGUCCCGUACGGAACG"
assay_metric = "yeast fitness"
measured = 0.529


Find the recorded yeast fitness belonging to `GUUCCGUUGGCGUAAUGGUAGCGCGUCUCCCUCCUAAGGGGAAGACUGCGGGUUAGAGUCCCGUACGGAACG` and report it.
0.535

Endpoint output: yeast fitness of `GUUCCGUUGGCGUAAUGGUAACGCGGCUCCCUCCUAAGGAGAAGACUGCGGGUUCGAGUCCCGUACCGAACG` . Value?
0.644

Reported yeast fitness for `GUUCCCUUGGCGUAAUGGUAACGCGUCUCCCUCCUAAGGAGAAGACUGGGGGUUCGAGUCCCGUACGGAACG` : what is it?
0.776
